target: human muscarinic M2 receptor (Homo sapiens, UniProt P08172); test: Alphascreen Surefire phospho-ERK1/2 functional assay, M2; format: cell-based; details: CHO, read-out: M2 % Emax cf. ACh
Sequence (P08172 whole entry): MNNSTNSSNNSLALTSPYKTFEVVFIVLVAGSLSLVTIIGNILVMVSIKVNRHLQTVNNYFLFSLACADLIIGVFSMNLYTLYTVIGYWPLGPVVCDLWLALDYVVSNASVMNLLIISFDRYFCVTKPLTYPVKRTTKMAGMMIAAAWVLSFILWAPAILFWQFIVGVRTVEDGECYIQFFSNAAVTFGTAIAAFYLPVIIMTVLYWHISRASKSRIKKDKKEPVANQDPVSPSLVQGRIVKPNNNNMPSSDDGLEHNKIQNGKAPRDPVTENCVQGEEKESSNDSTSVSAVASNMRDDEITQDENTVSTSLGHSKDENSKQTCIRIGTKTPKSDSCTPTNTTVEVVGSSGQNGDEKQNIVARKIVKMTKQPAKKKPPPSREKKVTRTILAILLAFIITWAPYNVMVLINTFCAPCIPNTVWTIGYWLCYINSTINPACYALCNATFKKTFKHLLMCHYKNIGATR
measured parameter: Emax (%)

[
  {
    "compound": "CC#CCOC(=O)N1CCCN(C2CCC(C#N)(c3ccc(OC)cn3)CC2)CC1 (single isomer, unassigned) [3-32 Isomer 1]",
    "quantity unit": "%",
    "Emax": 2
  },
  {
    "compound": "Cc1noc(C2CC3(CCN(C4CCC(C#N)(c5ccccc5F)CC4)C3)C2)n1 (single isomer, unassigned) [21-2 Isomer 3]",
    "quantity unit": "%",
    "Emax": 16
  }
]

1. CCc1noc([C@H]2CC[C@@H](NC3CCC(C#N)(c4ccccc4)CC3)C2)n1 (single isomer, unassigned) [19-2 Isomer 2]
2. CCOC(=O)N1CCCN(C2CCC(C#N)(c3cccc(C)c3)CC2)CC1 (mixture of isomers) [3-8 mixture of isomers]
3. CCOC(=O)N1CCCN(C2CCC(C#N)(c3ccc(Br)cn3)CC2)CC1 (single isomer, unassigned) [3-17 Isomer 1]
4. CCCC(=O)N1CCCN(C2CCC3(CC2)C(=O)Nc2ccccc23)CC1 (single isomer, unassigned) [4-3 isomer 2]
5. CCOC(=O)N[C@H]1CCN(C2CCC3(CC2)C(=O)Nc2cc(F)ccc23)C1 (single isomer, unassigned) [2-7 isomer 2]
**Q:** Exam item: list the entries in increasing order of Emax. Your reply should list the labels following the order given in the request.
**A:** 3, 4, 5, 2, 1

* * *

Target: human muscarinic M4 receptor (Homo sapiens, UniProt P08173)
Construct: expressed in transfected cells
Sequence (P08173 whole entry): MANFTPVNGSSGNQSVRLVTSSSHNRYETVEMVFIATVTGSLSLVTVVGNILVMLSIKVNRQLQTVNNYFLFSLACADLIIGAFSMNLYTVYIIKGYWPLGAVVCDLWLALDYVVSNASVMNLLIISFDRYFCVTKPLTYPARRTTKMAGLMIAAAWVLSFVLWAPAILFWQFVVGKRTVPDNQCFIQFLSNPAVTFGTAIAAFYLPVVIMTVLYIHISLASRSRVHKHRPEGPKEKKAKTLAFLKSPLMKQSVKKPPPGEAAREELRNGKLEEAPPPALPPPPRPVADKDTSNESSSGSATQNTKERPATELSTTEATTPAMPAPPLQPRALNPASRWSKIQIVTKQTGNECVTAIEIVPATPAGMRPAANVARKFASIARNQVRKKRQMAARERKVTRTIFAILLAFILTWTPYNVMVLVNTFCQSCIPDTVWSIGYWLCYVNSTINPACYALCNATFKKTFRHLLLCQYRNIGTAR
Assay: Alphascreen Surefire phospho-ERK1/2 functional assay, M4
Assay type: cell-based
Conditions: CHO cells stably expressing human M4; phospho-ERK1/2; read-out: pEC50 M4 (converted)
Procedure: Functional assays were performed using the Alphascreen Surefire phospho-ERK1/2 assay (Crouch & Osmond, Comb. Chem. High Throughput Screen, 2008). […] Plates were incubated for 2 h with gentle agitation in the dark and then read on a PHERAstar plate reader. pEC50 and Emax figures were calculated from the resulting data for each receptor subtype.
measured parameter: EC50 (nM)

I. CCOC(=O)N1CCCN(C2CCC(C#N)(c3ccc(OC)cn3)CC2)CC1 (single isomer, unassigned) [3-19 Isomer 2]
II. Cc1noc([C@@H]2CCCN(C3CCC4(CC3)C(=O)Nc3ccccc34)C2)n1 (single isomer, unassigned) [22-1 Isomer 1]
III. COC(=O)N1CCCN(C2CCC(C#N)(c3ccccc3)CC2)CC1 (mixture of isomers) [3-28 mixture of isomers]
**Q:** Could you arrange the 3 compounds above by EC50, starting with the largest number? Write the labels, ordered according to the request.
**A:** I, II, III

* * *

biological target: human muscarinic M2 receptor (Homo sapiens, UniProt P08172); assay: Alphascreen Surefire phospho-ERK1/2 functional assay, M2; assay type: cell-based; details: CHO, read-out: M2 % Emax cf. ACh
measured parameter: Emax (%)

[
  {
    "compound": "CCOC(=O)N(C)[C@@H]1CCN(C2CCC(C#N)(c3ccccc3)CC2)C1 (single isomer, unassigned) [1-21 Isomer 2]",
    "Emax, %": 1
  },
  {
    "compound": "CCOC(=O)N1CCC2(CCN(C3CCC4(CC3)C(=O)N(C(=O)OCC)c3ccccc34)CC2)C1 (single isomer, unassigned) [12-2 isomer 1]",
    "Emax, %": 27
  },
  {
    "compound": "CCOC(=O)N1CCCN(C2CCC(c3nc(CC)c(C)[nH]3)CC2)CC1 (single isomer, unassigned) [5-1 Isomer 2]",
    "Emax, %": 8
  },
  {
    "compound": "N#CC1(c2ccccc2)CCC(N2CC3(CC(c4nc(C(F)(F)F)no4)C3)C2)CC1 (single isomer, unassigned) [20-1 Isomer 2]",
    "Emax, %": 61
  },
  {
    "compound": "CCOC(=O)N1CC2CN(C3CCC(C#N)(c4ccccc4)CC3)CCC21 (single isomer, unassigned) [17-1 Isomer 2]",
    "Emax, %": 9
  }
]

I. CCOC(=O)N1CCCN(C2CCC(C#N)(c3ccc(Cl)cn3)CC2)CC1 (mixture of isomers) [3-16 mixture of isomers]
II. CCOC(=O)N[C@@H]1CCN(C2CCC(C#N)(c3ccccc3)CC2)C1 (single isomer, unassigned) [1-2 Isomer 2]
III. CCOC(=O)N1CCCN(C2CCC(C#N)(c3ccc(F)cc3)CC2)CC1 (mixture of isomers) [3-3 mixture of isomers]
IV. CCOC(=O)N1CCCN(C2CCC3(CC2)C(=O)Nc2ccc(OC)cc23)CC1 (single isomer, unassigned) [4-12 isomer 1]
**Q:** Order the items by recorded Emax; the first position goes to the largest value. Labels, ranked as asked.
**A:** III, II, I, IV
(III: 38%, II: 23%, I: 10%, IV: 3%)
